Taken from patent US20240059688A1.

# study-system: MOR (Homo sapiens)
# Sequence (P35372 whole entry): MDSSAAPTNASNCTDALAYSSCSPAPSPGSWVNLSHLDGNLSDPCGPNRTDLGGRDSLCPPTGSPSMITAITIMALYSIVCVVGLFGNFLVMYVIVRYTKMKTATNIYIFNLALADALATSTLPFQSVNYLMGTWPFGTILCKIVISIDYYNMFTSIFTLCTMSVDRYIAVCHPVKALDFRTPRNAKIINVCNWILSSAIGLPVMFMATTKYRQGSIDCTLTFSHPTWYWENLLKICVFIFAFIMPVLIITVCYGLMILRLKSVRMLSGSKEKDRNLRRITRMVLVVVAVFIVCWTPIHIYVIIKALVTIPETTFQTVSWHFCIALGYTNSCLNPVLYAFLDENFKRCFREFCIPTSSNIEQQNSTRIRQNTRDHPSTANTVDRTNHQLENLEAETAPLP
# protocol-notes: MOR calcium mobilization agonist/antagonist screen (CHO-RD-HGA16 cells)
# Assay type: cell-based
# Design: host or cells: CHO-RD-HGA16
# run-conditions: antagonist screen, single concentration; vs EC60 of DAMGO
Measured MOR Calcium % DAMGO Inhibition of individual entries
Respond numerically; units are % and should not be typed.

Illustrative cases are given below, each with its answer.
> print(dat)
                                   molecule  unit.tag  measured.result
1  C/C=C1/CN2CC[C@H]1C(=O)c1[nH]c3ccccc3c1C2         %                3
2  C/C=C1/CN(CC(C)C)CC[C@H]1C(=O)c1cc2ccccc2[nH]1         %                0
3       CCOC(=O)C1CCN(Cc2c[nH]c3ccccc23)CC1         %                4
4  CCC1CN2CC[C@H]1C(=O)c1[nH]c3ccccc3c1C2 (stereo partly shown)         %                7
5  C=C1c2[nH]c3ccccc3c2CN2CC[C@@H]1/C(=C\C)C2         %               15
6  C/C=C1/CN2CC[C@H]1C(=O)c1[nH]c3ccc(F)cc3c1C2         %                0
7  C/C=C1/CN(Cc2ccc(OC)cc2)CC[C@H]1C(=O)c1cc2ccccc2[nH]1         %               14
8  CCOC(=O)c1[nH]c2ccccc2c1CN1CCC(C(=O)OC)CC1         %               11

Form field, MOR Calcium % DAMGO Inhibition with MOR (Homo sapiens), item "C/C=C1/CN(CCc2ccc(F)cc2)CC[C@H]1C(=O)c1cc2ccccc2[nH]1" : 34

Form field, MOR Calcium % DAMGO Inhibition with MOR (Homo sapiens), item "C/C=C1/CN2CC[C@H]1C(=O)c1[nH]c3ccc(Cl)cc3c1C2" : 5

###

Measured CXCR4 β-arrestin % CXCL-12Emax (n = 2) of individual entries
# study-system: human CXCR4 (Homo sapiens, UniProt P61073)
# Construct: host or cells: C2C12
# Sequence (P61073 whole entry): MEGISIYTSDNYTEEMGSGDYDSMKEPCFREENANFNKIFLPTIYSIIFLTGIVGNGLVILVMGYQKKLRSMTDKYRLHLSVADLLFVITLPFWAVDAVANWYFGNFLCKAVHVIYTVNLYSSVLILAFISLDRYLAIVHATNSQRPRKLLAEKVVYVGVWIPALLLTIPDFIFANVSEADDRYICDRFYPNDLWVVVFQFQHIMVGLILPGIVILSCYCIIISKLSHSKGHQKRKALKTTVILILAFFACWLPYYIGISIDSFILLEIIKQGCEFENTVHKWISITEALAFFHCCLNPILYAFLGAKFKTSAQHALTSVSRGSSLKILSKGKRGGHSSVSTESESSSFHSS
# protocol-notes: CXCR4 β-arrestin recruitment assay (PathHunter)
# Assay type: cell-based
# run-conditions: human CXCR4-C2Cl2 cells, relative to CXCL-12
Respond numerically; units are % and should not be typed.

Illustrative cases are given below, each with its answer.
> print(dat)
                                   compound                              study.system  measured.result
1  CC(C)(C)OC(=O)N1CC[C@H](NC(=O)c2cc3ccccc3[nH]2)C1 [WW-26]  human CXCR4 (Homo sapiens, UniProt P61073)                9
2  CCCCCNC1CN(C(=O)c2cc3ccccc3[nH]2)C1 [WW-32]  human CXCR4 (Homo sapiens, UniProt P61073)                9

Would you kindly look at the next entry?
response.value for C/C=C1/CN(CCCCCN)CC[C@H]1C(=O)c1cc2ccccc2[nH]1 [WW-59] (field: CXCR4 β-arrestin % CXCL-12Emax (n = 2)) = 9

###

# study-system: human CXCR4 (Homo sapiens, UniProt P61073)
# Construct: host or cells: C2C12
# protocol-notes: CXCR4 β-arrestin recruitment assay (PathHunter)
# Type: cell-based
# run-conditions: human CXCR4-C2Cl2 cells, relative to CXCL-12
endpoint-label: CXCR4 β-arrestin % CXCL-12Emax (n = 2)

Illustrative cases are given below, each with its answer.
> print(dat)
                                   compound  measured.result
1  CCCCCN1CC[C@H](NC(=O)c2cc3ccc(-c4ccc(OC)cc4)cc3[nH]2)C1               6%
2  C/C=C1/CN(CCC)CC[C@H]1C(=O)c1cc2ccccc2[nH]1               8%
3  CCCCCN1CC[C@H](NC(=O)c2cc3ccc(-c4ccc(F)cc4)cc3[nH]2)C1              26%
4  C/C=C1/CN(Cc2ccc(OC)cc2)CC[C@H]1C(O)c1cc2cc(C#N)ccc2n1S(=O)(=O)c1ccccc1 (stereo partly drawn)              −2%
5   CCCCCN1CCC(C)(C(=O)c2cc3ccccc3[nH]2)CC1               5%
6      CCCCCN1CCC(C(=O)c2cc3ccccc3[nH]2)CC1               9%

response.value for "C/C=C1/CN2CC[C@H]1C(=O)c1[nH]c3ccc(F)cc3c1C2" (field: CXCR4 β-arrestin % CXCL-12Emax (n = 2)) = 2%

response.value for "C/C=C1/CN(CCCCC)CC[C@H]1C(=O)c1cc2cc(-c3ccc(F)cc3)ccc2[nH]1" (field: CXCR4 β-arrestin % CXCL-12Emax (n = 2)) = 9%

response.value for "C/C=C1/CN2CC[C@H]1C(=O)c1[nH]c3ccc(Cl)cc3c1C2" (field: CXCR4 β-arrestin % CXCL-12Emax (n = 2)) = 4%

###

# study-system: UniProt P25106
# Sequence (P25106 whole entry): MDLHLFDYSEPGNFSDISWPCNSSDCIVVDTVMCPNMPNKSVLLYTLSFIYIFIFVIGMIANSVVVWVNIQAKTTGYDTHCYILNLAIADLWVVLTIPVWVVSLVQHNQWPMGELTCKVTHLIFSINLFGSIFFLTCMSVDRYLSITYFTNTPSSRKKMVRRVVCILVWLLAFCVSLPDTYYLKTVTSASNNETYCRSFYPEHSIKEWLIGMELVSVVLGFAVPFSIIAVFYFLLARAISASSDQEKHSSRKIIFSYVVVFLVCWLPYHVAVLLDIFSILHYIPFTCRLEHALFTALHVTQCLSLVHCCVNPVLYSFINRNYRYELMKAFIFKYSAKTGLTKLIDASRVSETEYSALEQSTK
# protocol-notes: ACKR3 β-arrestin recruitment assay (PathHunter, β-galactosidase complementation)
# Format: cell-based
# run-conditions: stable human ACKR3-β-arrestin-2-CHO cells; mean ± SEM, at least two independent experiments in duplicate
Measured EC50 of individual entries

Illustrative cases are given below, each with its answer.
> print(dat)
                                    molecule  endpoint.label  measured.result
 1  C/C=C1/CN(Cc2ccc(OC)cc2)CC[C@H]1C(O)c1cc2cc(C#N)ccc2n1S(=O)(=O)c1ccccc1 (stereo partly shown)            EC50          > 10 µM
 2  C/C=C1/CN(CCCCCN)CC[C@H]1C(=O)c1cc2ccccc2[nH]1            EC50          > 10 µM
 3  CCC1CN2CC[C@H]1C(=O)c1[nH]c3ccccc3c1C2 (stereo partly shown)            EC50          > 10 µM
 4  CCOC(=O)c1[nH]c2ccccc2c1CN1CCC(C(=O)OC)CC1            EC50          > 10 µM
 5            NC1CN(C(=O)c2cc3ccccc3[nH]2)C1            EC50          > 10 µM
 6  C/C=C1/CN(CCCCC)CC[C@H]1C(=O)c1cc2ccc(F)cc2[nH]1            EC50             5 µM
 7  C/C=C1/CN(CC(C)C)CC[C@H]1C(=O)c1cc2ccccc2[nH]1            EC50          > 10 µM
 8  C/C=C1/CN(CCCCC)CC[C@H]1C(O)c1cc2ccccc2n1S(=O)(=O)c1ccccc1 (stereo partly shown)            EC50         0.177 µM
 9  CCCCCN1CC[C@H](NC(=O)c2cc3ccccc3[nH]2)C1            EC50          1.92 µM
10  C/C=C1/CN(CCCCC)CC[C@H]1C(=O)c1cc2ccccc2[nH]1            EC50         0.353 µM

response.value for "CCCCCNC1CN(C(=O)c2cc3ccccc3[nH]2)C1" (field: EC50) = > 10 µM

response.value for "CCOC(=O)C1CCN(Cc2c[nH]c3ccccc23)CC1" (field: EC50) = 4.81 µM

response.value for "C/C=C1/CN(CCCCN)CC[C@H]1C(=O)c1cc2ccccc2[nH]1" (field: EC50) = > 10 µM

response.value for "C/C=C1/CN(CCCCC)CC[C@H]1C(=O)c1cc2cc(-c3ccc(F)cc3)ccc2[nH]1" (field: EC50) = > 10 µM

response.value for CCOC(=O)C(c1[nH]c2ccccc2c1C=O)C1CCN(S(=O)(=O)c2ccc(C)cc2)C/C1=N\O[Si](C)(C)C(C)(C)C (stereo not shown) (field: EC50) = > 10 µM

response.value for "C/C=C1/CN(CCCCC)CC[C@H]1C(=O)c1cc2cc(C(C)=O)ccc2n1CCCCC" (field: EC50) = > 10 µM

###

# study-system: DOR (Homo sapiens)
# Sequence (P41143 whole entry): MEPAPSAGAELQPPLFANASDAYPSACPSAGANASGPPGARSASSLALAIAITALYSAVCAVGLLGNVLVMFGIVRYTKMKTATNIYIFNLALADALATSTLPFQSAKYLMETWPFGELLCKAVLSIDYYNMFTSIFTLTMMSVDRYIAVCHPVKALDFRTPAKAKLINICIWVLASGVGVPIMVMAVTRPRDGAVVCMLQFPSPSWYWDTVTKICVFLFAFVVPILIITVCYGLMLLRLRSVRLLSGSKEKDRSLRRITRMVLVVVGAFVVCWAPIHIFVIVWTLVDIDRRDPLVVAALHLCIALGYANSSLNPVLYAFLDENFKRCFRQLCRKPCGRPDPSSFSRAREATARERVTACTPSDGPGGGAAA
# protocol-notes: DOR calcium mobilization agonist/antagonist screen (CHO-RD-HGA16 cells)
# Format: cell-based
# Parameters: host or cells: CHO-RD-HGA16
# run-conditions: antagonist screen, single concentration; vs EC60 of DPDPE
endpoint-label: DOR Calcium % DPDPE Inhibition
Write the figure, then the unit, nothing else.

Illustrative cases are given below, each with its answer.
> print(dat)
                                   compound        study.system  measured.result
1  C/C=C1/CNCC[C@H]1C(=O)c1cc2ccccc2[nH]1 [WW-8]  DOR (Homo sapiens)               3%
2  C/C=C1/CN(CCc2ccc(F)cc2)CC[C@H]1C(=O)c1cc2ccccc2[nH]1 [WW-9]  DOR (Homo sapiens)              31%
3  C/C=C1/CN(CCC)CC[C@H]1C(=O)c1cc2ccccc2[nH]1 [WW-14]  DOR (Homo sapiens)               0%
4  CCOC(=O)c1[nH]c2ccccc2c1CN1CCC(C(=O)OC)CC1 [WW-6]  DOR (Homo sapiens)               1%
5  C/C=C1/CN2CC[C@H]1C(=O)c1[nH]c3ccccc3c1C2 [WW-1]  DOR (Homo sapiens)              22%

response.value for C/C=C1/CN(Cc2ccc(OC)cc2)CC[C@H]1C(=O)c1cc2ccccc2[nH]1 [WW-7] (field: DOR Calcium % DPDPE Inhibition) = 16%
